molecular target: Ubiquitin carboxyl-terminal hydrolase 1 (Homo sapiens) (UniProt O94782); experiment: Inhibitors of USP1/UAF1: Pilot qHTS (AID 504865); conditions: purified USP1/UAF1, Ub-rhodamine cleavage fluorescence; series mostly up to 54.9 µM; further: nearly all actives have a fitted effect of over 35% in size
Sequence (O94782 whole entry, looked up): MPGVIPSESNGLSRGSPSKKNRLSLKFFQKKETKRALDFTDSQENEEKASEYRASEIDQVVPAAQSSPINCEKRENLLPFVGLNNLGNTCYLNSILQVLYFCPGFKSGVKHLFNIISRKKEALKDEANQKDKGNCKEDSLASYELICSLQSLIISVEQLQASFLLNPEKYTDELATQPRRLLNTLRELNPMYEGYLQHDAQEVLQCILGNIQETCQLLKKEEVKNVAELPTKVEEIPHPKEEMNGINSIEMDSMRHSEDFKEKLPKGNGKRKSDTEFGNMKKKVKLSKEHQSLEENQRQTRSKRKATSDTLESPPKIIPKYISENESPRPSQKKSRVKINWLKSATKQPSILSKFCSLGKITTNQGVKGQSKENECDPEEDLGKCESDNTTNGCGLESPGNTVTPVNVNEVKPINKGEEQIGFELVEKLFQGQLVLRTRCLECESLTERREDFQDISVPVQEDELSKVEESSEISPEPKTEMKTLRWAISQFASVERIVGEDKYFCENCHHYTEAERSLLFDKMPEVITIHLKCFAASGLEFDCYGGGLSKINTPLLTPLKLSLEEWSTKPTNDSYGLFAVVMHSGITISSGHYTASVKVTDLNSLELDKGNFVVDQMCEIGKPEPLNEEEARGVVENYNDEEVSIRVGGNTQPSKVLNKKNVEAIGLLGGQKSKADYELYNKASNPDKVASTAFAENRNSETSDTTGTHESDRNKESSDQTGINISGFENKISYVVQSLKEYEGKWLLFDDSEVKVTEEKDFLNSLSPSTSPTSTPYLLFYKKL
Inconclusive results are not listed. Active and inactive are the calls of the source. The call rests on the fitted dose curve; in most records, active means well fitted inhibition curve with a large enough effect; inconclusive means small, poorly fitted or top-dose-only effect; inactive means flat fitted curve, though single readings scatter.
Outcome field: choose from active, inactive

COc1ccccc1CNc1ncncc1-c1cccc(NS(C)(=O)=O)c1 : inactive
CN(C)[C@H]1C(=O)C(C(=O)NCN2CCCC2)=C(O)[C@]2(O)C(=O)C3=C(O)c4c(O)cccc4[C@@](C)(O)[C@H]3C[C@@H]12 : active
C=C1C2CC[C@@]3(C)C(c4ccoc4)OC(=O)C[C@@]13OC1CC(O)C(C)(C)C(CC(=O)OC)[C@@]12C (stereo not given in full) : inactive
COc1ccc(-c2nc3cnc(N4CCOCC4)nc3n(Cc3cccc(OC)c3)c2=O)cc1 : inactive

Prompt line: Could you kindly confirm the outcome this assay logged for COc1ccccc1CNc1ncncc1-c1ccccc1CN(C)C ?
Response line: inactive

Prompt line: Could you kindly confirm the outcome this assay logged for Cc1cccc(CNc2ccnc(-c3ccccc3Cl)n2)c1 ?
Response line: active

Prompt line: Could you kindly confirm the outcome this assay logged for COCCn1c(=O)c(-c2cccc(C#N)c2)nc2cnc(Oc3ccc(OC)cc3)nc21 ?
Response line: inactive

Prompt line: Could you kindly confirm the outcome this assay logged for COc1ccc(-c2nc3cnc(OC)nc3n(CCc3ccccc3)c2=O)cc1 ?
Response line: inactive

Prompt line: Could you kindly confirm the outcome this assay logged for C=CC(C)(O)CCC=C(C)C (stereo not given) ?
Response line: inactive

Prompt line: Could you kindly confirm the outcome this assay logged for COc1cccc(-c2nccc(NCc3ccccc3)n2)c1 ?
Response line: active

* * *

target: 3',5'-cyclic-AMP phosphodiesterase 4B (Homo sapiens) (UniProt Q07343); test: qHTS Assay for Inhibitors of PDE-IV (AID 607); settings: HEK293 ACTOne CNG channel cells, membrane potential fluorescence; series mostly up to 22.9 µM
Sequence (Q07343 whole entry, looked up): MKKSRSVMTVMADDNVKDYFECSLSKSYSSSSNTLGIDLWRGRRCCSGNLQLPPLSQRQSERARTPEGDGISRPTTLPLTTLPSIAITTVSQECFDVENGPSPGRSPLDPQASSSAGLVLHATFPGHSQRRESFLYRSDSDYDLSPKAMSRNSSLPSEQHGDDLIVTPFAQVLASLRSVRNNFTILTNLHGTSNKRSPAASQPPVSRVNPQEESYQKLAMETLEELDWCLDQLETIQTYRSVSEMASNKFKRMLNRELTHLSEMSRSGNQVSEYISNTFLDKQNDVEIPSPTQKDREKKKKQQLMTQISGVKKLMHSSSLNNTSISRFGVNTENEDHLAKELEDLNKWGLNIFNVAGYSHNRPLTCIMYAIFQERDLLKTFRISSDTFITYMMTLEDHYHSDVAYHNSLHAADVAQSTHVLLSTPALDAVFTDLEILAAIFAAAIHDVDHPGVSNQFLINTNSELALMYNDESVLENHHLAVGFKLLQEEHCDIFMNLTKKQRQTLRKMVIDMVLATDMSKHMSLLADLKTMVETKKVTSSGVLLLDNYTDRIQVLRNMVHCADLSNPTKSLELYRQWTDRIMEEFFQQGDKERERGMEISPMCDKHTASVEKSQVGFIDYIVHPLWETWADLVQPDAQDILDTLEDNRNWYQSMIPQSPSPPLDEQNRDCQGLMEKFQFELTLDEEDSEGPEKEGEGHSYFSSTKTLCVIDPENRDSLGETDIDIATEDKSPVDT
Results filed as inconclusive are left out. The source made the active and inactive calls. Calls follow the shape of the dose curve; as a rule, active = well fitted activation curve with a large enough effect in the main read-out, with a control signal flat (not every such curve was filed as active); inconclusive = small, poorly fitted or top-dose-only effect, or effect the other way, or a change in a side signal; inactive = flat fitted curve, though single readings scatter.
Readout: outcome

// known answers, use as guide
N#Cc1cccc(-c2nccc(-n3ccnc3)n2)c1 : inactive
COc1cccc(-c2nccc(NCc3cccs3)n2)c1 : inactive
O=c1c(-c2cccs2)nc2cnc(Oc3cccc(Cl)c3)nc2n1C[C@H]1CCCO1 : inactive
COC(=O)N1CCC2(CCN(C(=O)Nc3ccc(OC)cc3)CC2)CC1 : inactive

Briefly, outcome measured for Cn1cccc1C(=O)N1CCC2(CCCN(Cc3ccncc3)C2)CC1 : inactive

Briefly, outcome measured for CN(C)C(=O)c1ccc(-c2nccc(NCc3cccnc3)n2)cc1 : inactive

Briefly, outcome measured for CN1CCN(c2ncc3nc(-c4ccc(Cl)cc4)c(=O)n(CCC#N)c3n2)CC1 : inactive

Briefly, outcome measured for Cc1cccc(CNc2ncnc3ccc(-c4cccc(NS(C)(=O)=O)c4)cc23)c1 : inactive

Briefly, outcome measured for CNc1nc(-c2ccoc2)nc2ccccc12 : inactive

Briefly, outcome measured for O=c1c(-c2ccccc2)nc2cnc(Nc3ccccc3)nc2n1C[C@H]1CCCO1 : inactive

Briefly, outcome measured for CN(C)C(=O)c1ccc(-c2nccc(N(C)Cc3ccco3)n2)cc1 : inactive

Briefly, outcome measured for CCNc1ncc2ncc(=O)n(CCc3ccccc3)c2n1 : inactive

Briefly, outcome measured for O=C(c1cnccn1)N1CCC2(CC1)CCN(c1ccncc1)CC2 : inactive
